Experiment: Inhibition of biotin-tagged KRAS G12D mutant (unknown origin) to recombinant His-tagged SOS1 (unknown origin) protein-protein interaction incubated for 120 mins by AlphaLISA method
Design: species or system Homo sapiens
Positions of bridges follow the written chain, without caps; N, C: chain ends. Non-standard residues stand in square brackets, D forms with d. Residues, ends and D or L forms follow the SMILES beside them. *: point of attachment. hPhe(3-Cl-4-CF3) = N[C@@H](CCc1ccc(C(F)(F)F)c(Cl)c1)C(=O)O; NMeCha = CN[C@@H](CC1CCCCC1)C(=O)O; NMeChg = CN[C@H](C(=O)O)C1CCCCC1; NMeT = CN[C@H](C(=O)O)[C@@H](C)O; NMeD = CN[C@@H](CC(=O)O)C(=O)O; NMehSer = CN[C@@H](CCO)C(=O)O; Piperidide = C1CCN(*)CC1; Ac5c = NC1(C(=O)O)CCCC1; Sar = CNCC(=O)O
Recorded metric: IC50

Prompt: So what does the record say about IC50 for CC[C@H](C)[C@@H]1NC(=O)[C@H]([C@@H](C)O)N(C)C(=O)C[C@@H](C(=O)N2CCCCC2)N(C)C(=O)[C@H](C2CCCCC2)N(C)C(=O)C2(CCCC2)NC(=O)[C@@H]2CCCN2C(=O)[C@H](CCc2ccc(C(F)(F)F)c(Cl)c2)NC(=O)CN(C)C(=O)[C@H](CC2CCCCC2)N(C)C(=O)CN(C)C(=O)CN(C)C1=O ([NMeT]I[Sar][Sar][NMeCha][Sar][hPhe(3-Cl-4-CF3)]P[Ac5c][NMeChg][NMeD]-Piperidide; lactam N-11) ?
Completion: < 2 nM

***
Prompt: So what does the record say about IC50 for CC[C@H](C)[C@@H]1NC(=O)[C@H](CCOC)N(C)C(=O)C[C@@H](C(=O)N2CCCCC2)N(C)C(=O)[C@H](C2CCCCC2)N(C)C(=O)C2(CCCC2)NC(=O)[C@@H]2CCCN2C(=O)[C@H](CCc2ccc(C(F)(F)F)c(Cl)c2)NC(=O)CN(C)C(=O)[C@H](CC2CCCCC2)N(C)C(=O)CN(C)C(=O)CN(C)C1=O ([NMehSer](Me)I[Sar][Sar][NMeCha][Sar][hPhe(3-Cl-4-CF3)]P[Ac5c][NMeChg][NMeD]-Piperidide; lactam N-11) ?
Completion: < 2 nM

====

Test: Inhibition of biotin-tagged KRAS G12D mutant (unknown origin) to recombinant His-tagged SOS1 (unknown origin) protein-protein interaction incubated for 120 mins by AlphaLISA method
Parameters: species or system Homo sapiens
Starred links: 1 amine or outer side, 2 acyl side, 3 side chain; linkers in the order of their positions; H or OH if unused. Positions of bridges follow the written chain, without caps; N, C: chain ends. Non-standard residues stand in square brackets, D forms with d. Residues, ends and D or L forms follow the SMILES beside them. *: point of attachment. hPhe(3-Cl-4-CF3) = N[C@@H](CCc1ccc(C(F)(F)F)c(Cl)c1)C(=O)O; X2 = CN([C@@H](CC(=O)[*:2])C(=O)n1cccc1)[*:1]; NMePhe(4-Cl) = CN[C@@H](Cc1ccc(Cl)cc1)C(=O)O; Phe(3-Cl) = N[C@@H](Cc1cccc(Cl)c1)C(=O)O; NMeGly(cPent) = CN[C@H](C(=O)O)C1CCCC1; NMeGly(cBu) = CN[C@H](C(=O)O)C1CCC1; NMeCha = CN[C@@H](CC1CCCCC1)C(=O)O; NMeGly(cPr) = CN[C@H](C(=O)O)C1CC1; NMeF = CN[C@@H](Cc1ccccc1)C(=O)O; NMeD = CN[C@@H](CC(=O)O)C(=O)O; NMeL = CN[C@@H](CC(C)C)C(=O)O; NMeNva = CCC[C@H](NC)C(=O)O; NMeV = CN[C@H](C(=O)O)C(C)C; NMeA = CN[C@@H](C)C(=O)O; Piperidide = C1CCN(*)CC1; Ac5c = NC1(C(=O)O)CCCC1; Aze = O=C(O)[C@@H]1CCN1; Sar = CNCC(=O)O
Please note: IC50 exactly at 8 nM is Not met. Only values below 8 nM get Met.

Prompt: In the record for CC[C@H](C)[C@@H]1NC(=O)[C@H](CC(C)C)N(C)C(=O)C[C@@H](C(=O)N2CCCCC2)N(C)C(=O)[C@H](C)N(C)C(=O)C2(CCCC2)NC(=O)[C@@H]2CCCN2C(=O)[C@H](CCc2ccc(C(F)(F)F)c(Cl)c2)NC(=O)CN(C)C(=O)[C@H](CC2CCCCC2)N(C)C(=O)[C@@H]2CCN2C(=O)[C@H](C)N(C)C1=O ([NMeL]I[NMeA][Aze][NMeCha][Sar][hPhe(3-Cl-4-CF3)]P[Ac5c][NMeA][NMeD]-Piperidide; lactam N-11) , is IC50 less than 8 nM?
Completion: Not met

Prompt: In the record for CC[C@H](C)[C@@H]1NC(=O)[C@H](CC(C)C)N(C)C(=O)C[C@@H](C(=O)N(C)C)N(C)C(=O)[C@H](C2CCCC2)N(C)C(=O)C2(CCCC2)NC(=O)[C@@H]2CCCN2C(=O)[C@H](CCc2ccc(C(F)(F)F)c(Cl)c2)NC(=O)CN(C)C(=O)[C@H](CC2CCCCC2)N(C)C(=O)[C@@H]2CCN2C(=O)[C@H](C)N(C)C1=O ([NMeL]I[NMeA][Aze][NMeCha][Sar][hPhe(3-Cl-4-CF3)]P[Ac5c][NMeGly(cPent)][NMeD]-NMe2; lactam N-11) , is IC50 less than 8 nM?
Completion: Met

Prompt: In the record for CC[C@H](C)[C@@H]1NC(=O)[C@H](C2CC2)N(C)C(=O)C[C@@H](C(=O)N2CCCCC2)N(C)C(=O)[C@H](C(C)C)N(C)C(=O)C2(CCCC2)NC(=O)[C@@H]2CCCN2C(=O)[C@H](CCc2ccc(C(F)(F)F)c(Cl)c2)NC(=O)CN(C)C(=O)[C@H](CC2CCCCC2)N(C)C(=O)CN(C)C(=O)CN(C)C1=O ([NMeGly(cPr)]I[Sar][Sar][NMeCha][Sar][hPhe(3-Cl-4-CF3)]P[Ac5c][NMeV][NMeD]-Piperidide; lactam N-11) , is IC50 less than 8 nM?
Completion: Not met

***
Prompt: In the record for CC[C@H](C)[C@@H]1NC(=O)[C@H](CC(C)C)N(C)C(=O)C[C@@H](C(=O)N2CCCCC2)N(C)C(=O)[C@H](C2CCC2)N(C)C(=O)C2(CCCC2)NC(=O)[C@@H]2CCCN2C(=O)[C@H](CCc2ccc(C(F)(F)F)c(Cl)c2)NC(=O)CN(C)C(=O)[C@H](CC2CCCCC2)N(C)C(=O)[C@@H]2CCN2C(=O)[C@H](C)N(C)C1=O ([NMeL]I[NMeA][Aze][NMeCha][Sar][hPhe(3-Cl-4-CF3)]P[Ac5c][NMeGly(cBu)][NMeD]-Piperidide; lactam N-11) , is IC50 less than 8 nM?
Completion: Met

Prompt: In the record for CCC[C@H]1C(=O)N(C)[C@H](C(=O)n2cccc2)CC(=O)N(C)[C@@H](C)C(=O)N[C@@H]([C@@H](C)CC)C(=O)N(C)CC(=O)N(C)CC(=O)N(C)[C@@H](Cc2ccc(Cl)cc2)C(=O)N(C)CC(=O)N[C@@H](Cc2cccc(Cl)c2)C(=O)N[C@@H](Cc2ccccc2)C(=O)N(C)[C@@H](Cc2ccccc2)C(=O)N1C (cyclo(F[NMeF][NMeNva][X2][NMeA]I[Sar][Sar][NMePhe(4-Cl)][Sar][Phe(3-Cl)])) , is IC50 less than 8 nM?
Completion: Not met
